# target-desc: human melanocortin-4 receptor (hMC4-R) (Homo sapiens, UniProt P32245)
# Sequence (P32245 whole entry): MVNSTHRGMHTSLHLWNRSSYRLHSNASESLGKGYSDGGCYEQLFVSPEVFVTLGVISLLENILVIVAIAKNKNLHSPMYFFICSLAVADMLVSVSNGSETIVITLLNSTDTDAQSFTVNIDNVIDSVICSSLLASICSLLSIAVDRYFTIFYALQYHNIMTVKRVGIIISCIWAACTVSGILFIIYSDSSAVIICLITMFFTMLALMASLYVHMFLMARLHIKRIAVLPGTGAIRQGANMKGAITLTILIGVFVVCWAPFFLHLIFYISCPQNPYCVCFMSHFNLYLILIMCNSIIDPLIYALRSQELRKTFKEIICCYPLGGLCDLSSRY
endpoint: IC50 (nM)
Give just the number in nM; leave the unit off.

O=C(N[C@H](Cc1ccc2ccccc2c1)C(=O)N1CCN(c2ccccc2CN2CCCC2=O)CC1)c1cc(=O)c2ccccc2o1; 100
O=C(N[C@@H](Cc1ccc(Cl)cc1)C(=O)N1CCC(c2ccccc2CN2CCCCC2=O)CC1)c1cc(=O)c2ccccc2o1; 200
CS(=O)(=O)Nc1ccccc1N1CCN(C(=O)[C@@H](Cc2ccc(Cl)cc2)NC(=O)[C@H]2Cc3ccccc3CN2)CC1 [WO03009850 (example 1)]; 500
O=C(N[C@H](Cc1ccc(Cl)cc1)C(=O)N1CCC(c2ccccc2CN2CCCCC2=O)CC1)c1cc(=O)c2ccccc2o1; 51
O=C(N[C@H](Cc1ccc2ccccc2c1)C(=O)N1CCC(c2ccccc2CN2CCCC2=O)CC1)c1cc(=O)c2ccccc2o1; 120

In plain terms, `O=C(N[C@@H](Cc1ccc(Cl)cc1)C(=O)N1CCN(c2ccccc2CN2CCCC2=O)CC1)c1cc(=O)c2ccccc2o1` has a documented IC50 of 770
